This collection of values is drawn from PubChem BioAssay AID1159580.

Below is a list of entries, each paired with its recorded normalized growth value.
assay-remarks: chemical genetic growth profiling, strain panel (AID 1159580);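 note: tested at 20 µM; growth read once vehicle control cultures reached saturation at 30 °C; 1 = growth at the plate median or of vehicle wells; lower values mean less growth of the strain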
experimental-conditions: S. cerevisiae deletion strains, growth OD, locus YLR058C, strain SHM2, hits give low values
About 2,000 (36%) of roughly 5,500 compounds were called active. About 18% were inconclusive and are not listed. The list shows a part of the results.
quantity-kind: normalized growth

{"compound": "C=CCCCCCCCCCCCC(O)CC(O)COC(C)=O (stereo not drawn) (tested in a mixture with another compound)", "result": "0.947 (inactive)"}
{"compound": "Cc1c(Cl)cccc1Nc1ccccc1C(=O)O", "result": "0.849 (active)"}
{"compound": "Oc1ccc(Cl)cc1", "result": "0.989 (inactive)"}

* * *

assay-remarks: chemical genetic growth profiling, strain panel (AID 1159580);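 note: tested at 20 µM; growth read once vehicle control cultures reached saturation at 30 °C; 1 = growth at the plate median or of vehicle wells; lower values mean less growth of the strain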
experimental-conditions: S. cerevisiae deletion strains, growth OD, locus YHR027C, strain rpn1, hits give low values
Among all 5,500 compounds or so, about 2,000 (36%) were called active. Roughly 18% stayed inconclusive and do not appear here. Some of the results follow.
quantity-kind: normalized growth

{"compound": "CCCCN1CCCCC1C(=O)Nc1c(C)cccc1C (centres undefined)", "numeric-readout": 0.99}
{"compound": "Clc1cccc(Cl)c1NC1=NCCN1", "numeric-readout": 0.98}
{"compound": "C[C@@H]1C(=O)OC2[C@H](O)C34[C@@H]5OC(=O)[C@@]3(O[C@@H]3OC(=O)[C@H](O)[C@@]34[C@H](C(C)(C)C)[C@H]5O)[C@]21O (some centres undefined)", "numeric-readout": 0.987}
{"compound": "CC(C)C(C)/C=C/C(C)C1CCC2C3=CC=C4CC(O)CCC4(C)C3CCC21C (centres undefined)", "numeric-readout": 0.999}
{"compound": "O=S1OCC2C(CO1)C1(Cl)C(Cl)=C(Cl)C2(Cl)C1(Cl)Cl (centres undefined)", "numeric-readout": 0.996}
{"compound": "Cc1cccc(C)c1NC1=NCCCS1", "numeric-readout": 0.992}
{"compound": "O=C(C1CCCCC1)N1CC(=O)N2CCc3ccccc3C2C1 (centres undefined)", "numeric-readout": 1.01}
{"compound": "C[C@H]1CC[C@@H](C(C)(C)O)CC2=C1CC[C@@H]2C", "numeric-readout": 0.994}
{"compound": "CN1C(C(=O)Nc2ccccn2)=C(O)c2ccccc2S1(=O)=O", "numeric-readout": 0.982}

* * *

assay-remarks: chemical genetic growth profiling, strain panel (AID 1159580);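 note: tested at 20 µM; growth read once vehicle control cultures reached saturation at 30 °C; 1 = growth at the plate median or of vehicle wells; lower values mean less growth of the strain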
experimental-conditions: S. cerevisiae deletion strains, growth OD, locus YER015W, strain faa2
Out of some 5,500 compounds screened, about 2,000 (36%) were called active. Not shown: some 18% with an inconclusive outcome. Cut-off read from the data, not from the text of the source: active = normalized growth mostly below about 0.91 (no sharp cut-off); inconclusive = no clear call, values can overlap the other calls; inactive = mostly above about 0.92. The list shows a part of the results.
Outcome codes: active, inactive

{"compound": "C#CCCCCCCCCCCCC(=O)CC(O)COC(C)=O (stereo unspecified)", "class-label": "inactive"}
{"compound": "C=CCCCCCCCCCCCC(O)CC(O)COC(C)=O (stereo unspecified) (tested in a mixture with another compound)", "class-label": "inactive"}
{"compound": "COC(=O)C1=CCCN(C)C1", "class-label": "inactive"}
{"compound": "CCOC(=O)Nc1nc2ccccc2[nH]1", "class-label": "inactive"}
{"compound": "C#CCCCCCCCCCCCC(O)CC(O)COC(C)=O (stereo unspecified)", "class-label": "active"}
{"compound": "Cc1c(Cl)cccc1Nc1ccccc1C(=O)O", "class-label": "active"}
